Target: human CB2 receptor (Homo sapiens, UniProt P34972)
Construct: expressed in transfected cells; host or cells: human embryonic kidney (HEK) cells, Semliki Forest Virus system, membrane preparations
Sequence (P34972 whole entry): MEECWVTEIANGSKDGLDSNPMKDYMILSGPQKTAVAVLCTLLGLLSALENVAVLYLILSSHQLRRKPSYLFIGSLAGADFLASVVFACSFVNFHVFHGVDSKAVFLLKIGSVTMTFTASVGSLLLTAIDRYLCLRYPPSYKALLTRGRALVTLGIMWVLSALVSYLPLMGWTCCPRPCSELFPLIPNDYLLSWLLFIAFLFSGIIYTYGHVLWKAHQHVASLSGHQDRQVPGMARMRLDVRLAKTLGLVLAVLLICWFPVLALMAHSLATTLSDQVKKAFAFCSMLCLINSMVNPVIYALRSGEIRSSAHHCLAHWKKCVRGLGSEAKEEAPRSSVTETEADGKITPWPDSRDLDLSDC
Assay: CB2 receptor affinity, [3H]-CP-55,940 displacement, HEK cell membranes
Assay type: binding
Conditions: 10 μM compound, radioligand [3H]-CP-55,940
Experimental: The affinity of the compounds of the invention for cannabinoid CB2 receptors was determined using membrane preparations of human embryonic kidney (HEK) cells in which the human CB2 receptor is transiently transfected using a Semliki Forest Virus system in conjunction with [^3H]-CP-55,940 as radioligand. […] Radioactivity on the filter was measured by scintillation counting. […]
Entries annotated with measured inhibition at 10 µM
Report field: quantity (unit follows the number).

# line-notation, inhibition at 10 µM
rows = [
    ("O=C(NCc1nc(C(F)(F)F)no1)c1cnc(O[C@@H]2CCOC2)c(-c2ccc(Cl)cc2)c1", "24%"),
    ("Cc1cc(-c2cc(C(=O)NCc3csc(C4CC4)n3)cnc2OCC(F)(F)F)ccc1Cl", "-7%"),
    ("CCCn1ccc(CNC(=O)c2cc(-c3ccc(Cl)cc3)c(OCC(F)(F)F)cn2)n1", "33%"),
    ("O=C(NCc1nc(C(F)(F)F)no1)c1ncc(OCC(F)(F)F)c(-c2ccc(Cl)cc2)n1", "15%"),
    ("CCCc1nc(CNC(=O)c2cnc(OCC3CC3)c(-c3ccc(Cl)cc3)c2)cs1", "12%"),
    ("COc1cc(CNC(=O)c2cc(-c3ccc(Cl)cc3)c(O[C@@H](C)C(F)(F)F)cn2)on1", "20%"),
]

Attention now turns to another entry.
input: Look up and state reported inhibition at 10 µM for CC(C)c1cc(CNC(=O)c2ccc(OCC3CC3)c(-c3ccc(Cl)cc3)n2)no1
output: 33%
